Here, each record is paired with measured z-score data.
- System: Neuropilin-2 / VEGF-C interaction (human)
- method-notes: inhibitors of NRP2–VEGF-C binding, biochemical, microplate binding format, z-score (AID 743281); further: test concentration not given here
- run-conditions: microplate NRP2/VEGF-C binding assay; hits give low values
Activity calls are given as the source filed them. How the calls were made is not given here.
measure-name: z-score

INSERT INTO results (smiles_representation, target_or_system, value_observed) VALUES
  ('CCS(=O)(=O)CCn1c([N+](=O)[O-])cnc1C', 'Neuropilin-2 / VEGF-C interaction (human)', '-0.45 (inactive)'),
  ('C[C@@H]1O[C@@H](OC[C@H]2O[C@@H](Oc3c(-c4ccc(O)c(O)c4)oc4cc(O)cc(O)c4c3=O)[C@H](O)[C@@H](O)[C@@H]2O)[C@H](O)[C@H](O)[C@H]1O', 'Neuropilin-2 / VEGF-C interaction (human)', '0.702 (inactive)'),
  ('CCN(CC)CC(=O)Nc1c(C)cccc1C', 'Neuropilin-2 / VEGF-C interaction (human)', '1.47 (inactive)'),
  ('NC(=O)N1c2ccccc2CC(=O)c2ccccc21', 'Neuropilin-2 / VEGF-C interaction (human)', '0.598 (inactive)'),
  ('N[C@@H]1CONC1=O', 'Neuropilin-2 / VEGF-C interaction (human)', '-0.138 (inactive)');
